Reference source for all entries: the RNAGym collection of RNA variant scans (doi:10.1038/s41586-018-0170-7)

B1: tRNA (parent)
chain: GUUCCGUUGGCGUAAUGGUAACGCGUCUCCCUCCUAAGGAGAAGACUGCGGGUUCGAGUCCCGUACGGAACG

Variants of: B1
Assay: yeast fitness, log relative to wild type (ln ratio); higher = fitter; tRNA-Arg(CCU), competitive growth, 37 C, 1 M NaCl
MEASURE: yeast fitness (ln)
Form field (numeric): enter value without unit.

// solved cases for yeast fitness (ln) follow
VARIANT_ANNOTATION: U2G C27U C46U C71U
yeast fitness (ln): -0.099

VARIANT_ANNOTATION: G1A G6A C46U C66U A70U
yeast fitness (ln): -0.0452

VARIANT_ANNOTATION: U2G G6A C27U A43C C46U C66U
yeast fitness (ln): -0.102

VARIANT_ANNOTATION: U2G C27U A43C C46U C66U
yeast fitness (ln): -0.146

VARIANT_ANNOTATION: A43C C46U C66U A70G C71U
yeast fitness (ln): -0.149

VARIANT_ANNOTATION: G6U A43C C66U A69G A70G
yeast fitness (ln): -0.333

VARIANT_ANNOTATION: U2G G6U A43C
yeast fitness (ln): -0.129

VARIANT_ANNOTATION: G6U C27U A43C C66A A70U
yeast fitness (ln): -0.185

VARIANT_ANNOTATION: G1A G6U C27U A43C C46U A70G C71U
yeast fitness (ln): -0.321

VARIANT_ANNOTATION: U2G A43C C46U C66A A70U C71U
yeast fitness (ln): -0.193

Moving on to another variant below.
Query G1A U2G G6A A43C C71U yields yeast fitness (ln) of -0.276
